The reported measurements were obtained from ChEMBL document CHEMBL1201862.

# Test system: NCI/ADR-RES
# Protocol summary: NCI tumour cell line growth inhibition, 48 h
The source made the active and inactive calls. Rule as the data show it: active = GI50 up to about 1.1 µM and inactive = higher.
Please go through the items and note down their GI50.

Req: Would you mind telling me what GI50 value was observed for Nc1nc(Nc2ccccc2)sc1C(=O)c1c[nH]c2ccccc12 ?
Resp: 12.6 µM (inactive)

Req: Now consider CC(=O)NC1(C)CCC(C(C)(C)NC(C)=O)CC1 (stereo unspecified) .
Resp: > 100 µM (inactive)

Req: Now consider CCOC(=O)C1(Cc2ccccc2)Cc2cc3c(cc2C1)CCC3 .
Resp: 48.1 µM (inactive)

Req: Now consider CC(C)(CN1CCCCC1)C(/C=C/c1ccc(Cl)c(Cl)c1)=N\NC(=O)N/N=C(/C=C/c1ccc(Cl)c(Cl)c1)C(C)(C)CN1CCCCC1 .
Resp: 1.73 µM (inactive)

Req: Now consider CCN(CC)c1ccc2cc(C(N)=O)/c(=N/c3ccc(F)cc3)oc2c1 .
Resp: 35.6 µM (inactive)

Req: Now consider COc1cc(C2NCCC(c3ccccc3)(c3ccccc3)N2)cc(OC)c1OC (stereo unspecified) .
Resp: > 100 µM (inactive)

Req: Now consider CN1CCc2c(sc3nc(S)nc(S)c23)C1 .
Resp: > 100 µM (inactive)

Req: Now consider COc1ccc(N2C(=O)c3c4c(c5c([nH]c6ncccc65)c3C2=O)CCC(C(C)(C)C)C4)cc1 (stereo unspecified) .
Resp: > 100 µM (inactive)

Req: Now consider CS(C)(=O)=N/C=C\C(=O)C(Cl)(Cl)Cl .
Resp: > 100 µM (inactive)

Req: Now consider Cc1cc(S(=O)(=O)Nc2nc(N)n[nH]2)c(Cl)cc1Cl .
Resp: > 10 µM (inactive)

Req: Now consider N/C(S)=N/N=C/c1ccc(O)cn1 .
Resp: 4.01 µM (inactive)

====

Please go through the items and note down their GI50.
# Test system: CAKI-1
# Protocol summary: NCI tumour cell line growth inhibition, 48 h
Active and inactive are the calls of the source. No stated cut-off is given here; in the data, active = GI50 up to about 1.1 µM and inactive = higher.

Req: Would you mind telling me what GI50 value was observed for O=C(/C=C/c1ccccc1O)c1cccnc1 ?
Resp: > 100 µM (inactive)

Req: Now consider CC(=O)Nc1ccc(/C=c2\sc3nnc(-c4cccnc4)n3c2=O)cc1 .
Resp: 17.9 µM (inactive)

Req: Now consider Nc1c(-c2nc3ccccc3s2)[n+]([O-])c2ccccc2[n+]1[O-] .
Resp: 25.8 µM (inactive)

Req: Now consider C=CC(=O)NC(=N)NC#N .
Resp: 69 µM (inactive)

Req: Now consider O=C(/C(=C/c1ccc(O)cc1)c1ccccc1)c1ccccc1 .
Resp: 19.1 µM (inactive)

Req: Now consider O=C1C=C(Cl)C(=O)C(c2ccc(Cl)cc2)=C1 .
Resp: 17.6 µM (inactive)

====

# Tested on: SK-OV-3
# Protocol summary: NCI tumour cell line growth inhibition, 48 h
Active and inactive are the calls of the source. No stated cut-off is given here; in the data, active = GI50 up to about 1.1 µM and inactive = higher.
Measured metric: GI50

Req: Would you mind telling me what GI50 value was observed for COc1cc(OC)c2c(c1)OC(c1ccccc1)CC2=O (centres undefined) ?
Resp: > 10 µM (inactive)

Req: Now consider COc1cc(/C=N/c2nc3cc4sc(/N=C/c5cc(OC)c(OC)c(OC)c5)nc4cc3s2)cc(OC)c1OC .
Resp: > 100 µM (inactive)

Req: Now consider COC(=O)c1onc(-c2c(OC)cc(OC)cc2OC)c1C(=O)OC .
Resp: > 100 µM (inactive)

Req: Now consider COc1ccc(C=O)cc1O[Si](C)(C)C(C)(C)C .
Resp: > 100 µM (inactive)

Req: Now consider CC(=O)OCc1cc(CCC(=O)NCCNc2c3ccccc3nc3ccccc23)cc(COC(C)=O)c1O[Si](C)(C)C(C)(C)C .
Resp: 13.9 µM (inactive)

Req: Now consider CC#Cc1c(C#CC)c(OC)c2c(c1OC)C(=O)c1ccccc1C2=O .
Resp: 34.9 µM (inactive)

Req: Now consider Cc1ccc(S(=O)(=O)NCCSCCNS(=O)(=O)c2ccc(C)cc2)cc1 .
Resp: > 100 µM (inactive)

Req: Now consider CCCCCC/C=C\CCCCCCCCCC1=CC(=O)C=C(OC)C1=O .
Resp: 4.36 µM (inactive)

Req: Now consider COc1nc(NC2OCC(OC(C)=O)C(OC(C)=O)C2OC(C)=O)c(/N=C\C=N\c2c(NC3OCC(OC(C)=O)C(OC(C)=O)C3OC(C)=O)nc(OC)n(C)c2=O)c(=O)n1C (centres undefined) .
Resp: > 100 µM (inactive)

====

# System: U-251
# Protocol summary: NCI tumour cell line growth inhibition, 48 h
Activity calls are given as the source filed them. No stated cut-off is given here; in the data, active = GI50 up to about 1.1 µM and inactive = higher.
Log the outcome using a class from y = active, n = inactive

Req: Which outcome was entered for the compound CN(C)c1ccc(/C=C(\NC(=O)c2ccccc2)C(=O)Nc2ccccc2C(=O)NCc2ccccc2)cc1 in this test?
Resp: n

Req: Now consider CCOC(=O)C1(Cc2ccc3ccccc3c2)CCCCC(=O)N1 (centres undefined) .
Resp: n

Req: Now consider CC(C)c1ccc(/C=C(\NC(=O)c2ccccc2)c2nc3ccccc3[nH]2)cc1 .
Resp: n

Req: Now consider COc1ccc(CNc2nc3ccccc3nc2-c2cccs2)cc1 .
Resp: n

Req: Now consider CC(=O)OCc1cc(CCC(=O)NCCNc2c3ccccc3nc3ccccc23)cc(COC(C)=O)c1O[Si](C)(C)C(C)(C)C .
Resp: n

Req: Now consider CCC1(OC(=O)CNC)C(=O)OCc2c1cc1n(c2=O)Cc2cc3ccccc3nc2-1 (centres undefined) .
Resp: y

Req: Now consider CC1=NN(c2cccc(S(=O)(=O)O)c2)C2(C1)C(Cl)C(=O)N2c1nc2ccccc2s1 (centres undefined) .
Resp: n

Req: Now consider Nc1ncc(Cc2nc3ccccc3s2)s1 .
Resp: n

Req: Now consider C=C(C)C1CC[C@]2(C(=O)O)CCC3(C)[C@H](CCC4[C@@]5(C)CC[C@H](OC6OC(CO)C(O)C6OC6OC(C)C(O)C(O)C6O)[C@@](C)(CO)C5CC[C@]43C)C12 (some centres undefined) .
Resp: n

====

# Tested on: UACC-62
# Protocol summary: NCI tumour cell line growth inhibition, 48 h
Active and inactive are the calls of the source. No stated cut-off is given here; in the data, active = GI50 up to about 1.1 µM and inactive = higher.
Measured metric: GI50

Req: Would you mind telling me what GI50 value was observed for Cc1[nH]c(/C=C2\C(=O)Nc3ccccc32)c(C)c1CCC(=O)O [ORANTINIB] ?
Resp: 32.2 µM (inactive)

Req: Now consider CC(C)OP(=O)(OC(C)C)c1ccc2c(c1)OCCOCCOCCOCCO2 .
Resp: > 100 µM (inactive)

Req: Now consider CO/C(N)=C(C#N)/N=C/c1cccnc1 .
Resp: > 100 µM (inactive)

Req: Now consider C=C1CC(c2ccc(O)c(OC)c2)Oc2c(OC)cccc21 (stereo unspecified) .
Resp: 35.4 µM (inactive)

Req: Now consider C1CCC(OCc2nnn3c2CCC3)OC1 (stereo unspecified) .
Resp: > 100 µM (inactive)

Req: Now consider Cc1n[nH]c(=O)n1/N=C\c1ccccc1 .
Resp: > 100 µM (inactive)

Req: Now consider CCCCCCCC/C=C\CCCCCCC/C=C1/C[C@](/C=C/C(=O)OC)(CO)OC1=O .
Resp: 9.35 µM (inactive)

Req: Now consider CC(C)(C)c1ccc2c(c1)CNCCNCCNCc1cc(C(C)(C)C)ccc1OCC1(CO2)COc2ccc(C(C)(C)C)cc2CNCCNCCNCc2cc(C(C)(C)C)ccc2OC1 .
Resp: 1.68 µM (inactive)

Req: Now consider Cc1cc(C)nc(NC(=S)Nc2ccccc2Cl)c1 .
Resp: > 100 µM (inactive)

Req: Now consider CCCCCCCCCCCC(=O)OCCOCCOCCOCCOCCOC(=O)CCCCCCCCCCC .
Resp: 56.2 µM (inactive)

Req: Now consider CCOC(=O)C(=O)Nc1ccccc1CC .
Resp: > 100 µM (inactive)

====

# Tested on: EKVX
# Protocol summary: NCI tumour cell line growth inhibition, 48 h
Calls of active or inactive are those of the source. Cut-off read from the data, not from the text of the source: active = GI50 up to about 1.1 µM and inactive = higher.
Log the outcome using a class from yes (active), no (inactive)

Req: Which outcome was entered for the compound Cc1ccc(C2NC(=O)c3ccccc3N2)s1 (configuration not stated) in this test?
Resp: no

Req: Now consider COc1ccc2nc3cc([N+](=O)[O-])ccc3c(NNc3ccccc3)c2c1 .
Resp: no

Req: Now consider O=C(O)CCC1CCc2cccc(OCC(=O)O)c2C1=O (configuration not stated) .
Resp: no

Req: Now consider Cc1ccc(/C=c2\cc3oc(=O)c4cccc(c4-3)c2=O)cc1 .
Resp: no

Req: Now consider CCc1ccc(/N=C\c2cc(OC)c(OC)c(OC)c2)cc1 .
Resp: no

Req: Now consider COc1ccc(/C=N/n2cnc3[nH]c(C)c(Cc4ccccc4)c3c2=N)cc1 .
Resp: no

Req: Now consider CCOC(=O)C1(Cc2ccccc2)Cc2cc3c(cc2C1)CCC3 .
Resp: no

Req: Now consider Cc1[nH]nc(-c2ccon2)c1N=O .
Resp: no

Req: Now consider CCOC(=O)Cc1csc(Nc2ccc(OCC)cc2)n1 .
Resp: no

Req: Now consider CN(C(=O)c1ccccc1)C1CCCC(=O)CC1 (configuration not stated) .
Resp: no

Req: Now consider CCN1CCC(O)(c2ccc(OC)cc2)C(C(=O)c2ccc(OC)cc2)C1 (configuration not stated) .
Resp: no

Req: Now consider CC1=C2O[C@]3(O)C=C2C(=C(O)C1=O)[C@@H]1O[C@H](CC[C@H](C)/C=C(\C)C[C@@H](C)C[C@@H]3C)[C@H](C)[C@H](O)[C@H]1C [KENDOMYCIN] .
Resp: yes

Req: Now consider COc1cccc(Nc2nc(-c3cccs3)nc3ccc(Br)cc23)c1 .
Resp: no

Req: Now consider CCN(CC)c1ccc(C2Nc3ccc4ccccc4c3C3=C2C(=O)CCC3)cc1 (configuration not stated) .
Resp: no

Req: Now consider Oc1cnnc2nc3ccccc3n12 .
Resp: no

Req: Now consider COc1cc(/C=N/c2nc3cc4sc(/N=C/c5cc(OC)c(OC)c(OC)c5)nc4cc3s2)cc(OC)c1OC .
Resp: no

Req: Now consider CC(C)NCC(O)c1ccc(O)c2ncccc12 (configuration not stated) .
Resp: no

Req: Now consider Cc1c(S(=O)(=O)N/C(N)=N/c2ccc(Cl)cc2)sc2ccc(Cl)cc12 .
Resp: no

Req: Now consider COc1ccc(-c2c3c(n(C4OC(COC(C)=O)C(OC(C)=O)C(OC(C)=O)C4OC(C)=O)c(=S)c2C#N)CCCC3)cc1 (configuration not stated) .
Resp: no

Req: Now consider COc1cc(C2C(Cl)C(=O)N2NC(=O)Cc2ccccc2)cc(Br)c1O (configuration not stated) .
Resp: no

Req: Now consider Cc1cccc(C)c1NC(=O)CCCC(=O)C1/C(=N/NC(=O)CC#N)CCC/C1=N\NC(=O)CC#N (configuration not stated) .
Resp: no

Req: Now consider Oc1c(CN2CCOCC2)ccc2cccnc12 .
Resp: no
